This collection of values is drawn from ChEMBL document CHEMBL3244256.

assay.remarks: Toxicity po dosed whole-body gamma-irradiated mouse compound administered 30 mins prior irradiation
Format: organism-based
study.conditions: in vivo
measured.endpoint: LD50 at 0.5 h (mg/kg)
Just the number in mg/kg, nothing appended.

Quote LD50 at 0.5 h reported for "Cl.NCCCC[C@H](N)CS" please.
450
